Biological target: CDK4/cyclinD1 (Homo sapiens)
Sequence (P11802 whole entry): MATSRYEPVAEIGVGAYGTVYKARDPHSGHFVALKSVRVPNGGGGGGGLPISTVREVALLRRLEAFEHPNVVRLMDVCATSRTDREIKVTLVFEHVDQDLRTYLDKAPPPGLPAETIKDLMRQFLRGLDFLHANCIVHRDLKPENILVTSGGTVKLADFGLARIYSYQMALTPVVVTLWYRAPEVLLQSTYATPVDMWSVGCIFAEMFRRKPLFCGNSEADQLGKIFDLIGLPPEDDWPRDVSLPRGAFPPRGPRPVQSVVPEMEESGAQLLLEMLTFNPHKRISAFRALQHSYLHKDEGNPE
Sequence (P24385 whole entry partner): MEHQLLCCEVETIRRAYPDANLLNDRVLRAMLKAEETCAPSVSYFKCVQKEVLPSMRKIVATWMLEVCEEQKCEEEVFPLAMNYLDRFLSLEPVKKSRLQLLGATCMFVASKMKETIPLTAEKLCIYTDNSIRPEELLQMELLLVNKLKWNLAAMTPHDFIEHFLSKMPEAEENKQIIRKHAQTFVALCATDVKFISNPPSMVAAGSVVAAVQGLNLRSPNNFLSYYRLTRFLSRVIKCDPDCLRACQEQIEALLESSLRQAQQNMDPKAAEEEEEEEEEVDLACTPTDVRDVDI
Experiment: Inhibition of CDK4 kinase activity (in vitro)
REPORTED ENDPOINT: pIC50
The value called pIC50 is obtained by taking minus log10 of the concentration in mol/L.

Examples with answers:
MOLECULE: CC(=O)c1c(C)c2cnc(Nc3ccc(N4CCN(C(=O)CCc5cn(CCOCCOCCOCC(=O)N[C@H](C(=O)N6C[C@H](O)C[C@H]6C(=O)NCc6ccc(-c7scnc7C)cc6)C(C)(C)C)nn5)CC4)cn3)nc2n(C2CCCC2)c1=O
pIC50: 7.89
--
MOLECULE: CC(=O)c1c(C)c2cnc(Nc3ccc(N4CCN(C(=O)CNCCN)CC4)cn3)nc2n(C2CCCC2)c1=O
pIC50: 9.08

Return pIC50 (reported value) for this molecule: CC(=O)c1c(C)c2cnc(Nc3ccc(N4CCN(C(=O)CNCCCCNC(=O)COc5cccc6c5C(=O)N(C5CCC(=O)NC5=O)C6=O)CC4)cn3)nc2n(C2CCCC2)c1=O (stereo not drawn)
9.16
